Test system: CCRF-CEM leukemia
MEASUREMENT_DESCRIPTION: NCI-60 one-dose screen, 48 h (100 = growth as untreated, 0 = no growth, -100 = all killed)
CONDITION_SET: 10 µM unless noted
About 83,000 compounds went through this panel and 20% of them were active in at least one assay; those are over-represented in the sample as a whole. Active and inactive are the calls of the source. How the source made its calls: active means growth percent below 10; inactive means the rest.
QUANTITY_MEASURED: growth

Previously resolved entries follow.
CC(=O)NCC(=O)N1[C@@H]2CC[C@H]1c1ccc(Nc3ncc(C(F)(F)F)c(NC4CCC4)n3)cc12: 40.2% [2.5 µM] (inactive)
Cn1cnc2c(F)c(Nc3ccc(Br)cc3Cl)c(C(=O)NOCCO)cc21: 95.8% (inactive)
COc1cc2c(c(OC)c1)C1c3ccccc3NC(=O)N1CC2 (stereo not given): 10.7% (inactive)
Cc1cc(O)c2c(c1)C1OC(=O)CCCCCN1C1=C2C(=O)c2cccc(OC3CC(O)C(O)C(C)O3)c2C1=O (stereo not given): 57.8% (inactive)

Bench note: what growth did Cc1cc(Nc2cc(N3CCN(C)CC3)nc(/C=C/c3ccccc3)n2)n[nH]1 show? 13.8% (inactive)

====

Please respond with reported growth for every item in the list.
Tested on: KM12 colon
MEASUREMENT_DESCRIPTION: NCI-60 one-dose screen, 48 h (100 = growth as untreated, 0 = no growth, -100 = all killed)
CONDITION_SET: 10 µM unless noted
This is part of a sample that, as a whole, favours compounds with a hit. Of some 83,000 tested, about 20% had one in any assay.
One number for each entry, in %.

For every listed record, write down its growth.
1. CNC(=O)c1cccc2cc(Oc3ccnc4cc(OCC5(N)CC5)c(OC)cc34)ccc12
2. CCOc1cc2ncc(C#N)c(Nc3ccc(F)c(Cl)c3)c2cc1NC(=O)/C=C/CN(C)C
3. O=S1(=O)OC(c2ccc(O)c(Cl)c2)(c2ccc(O)c(Cl)c2)c2ccccc21
4. COc1ccc(C2CC(=O)c3c(O)c(OC)c(OC)c(OC)c3O2)cc1O (stereo not given)
5. Cn1cc(-c2cnn3c(N)c(Br)c([C@@H]4CCCNC4)nc23)cn1
6. CN1CCN(c2nc(C3=C(c4c[nH]c5ccccc45)C(=O)NC3=O)c3ccccc3n2)CC1
7. C=C1[C@@H](O)C[C@H]2C(C)(C)C[C@H](Cl)C[C@]2(C)[C@H]1C[C@H](O)[C@H]1CC(=O)NC1=O
8. CC/C(=C(/c1ccc(Cl)cc1)c1ccc(OCCN2CCCCC2)cc1)c1ccc(Cl)cc1

[45.9, -83.8, 103, 12.5, 18.4, 36.1, -18, 69.2]

For every listed record, write down its growth.
1. CC1=CC2c3oc(-c4ccccc4)c(C(=O)c4ccccc4)c3CNC2C=C1 (stereo not given)
2. O=C(c1ccccc1)C(c1ccccc1)N1CCOCC1 (stereo not given)

101
99.1

====

Please respond with reported growth for every item in the list.
System: HT29 colon
MEASUREMENT_DESCRIPTION: NCI-60 one-dose screen, 48 h (100 = growth as untreated, 0 = no growth, -100 = all killed)
CONDITION_SET: 10 µM unless noted
The panel holds about 83,000 compounds, 20% with a hit somewhere; the sample as a whole holds those more often.
Give bare numbers, in %.

Cc1cc(C(=O)Nc2cc(Oc3ccc4nc(NC(=O)C5CC5)cn4n3)ccc2C)n(C)n1: 4.61

For every listed record, write down its growth.
1. CO[C@@H](C(=O)N1Cc2[nH]nc(NC(=O)c3ccc(N4CCN(C)CC4)cc3)c2C1)c1ccccc1
2. Cc1cc(C(O)CN(C)C)cc2c1ccc1cc(C(C)C)ccc12 (stereo not given)
3. COc1ccc(C2CC(=O)c3c(O)c(OC)c(OC)c(OC)c3O2)cc1O (stereo not given)
4. O=C(O)c1ccc2c(c1)nc(Nc1cccc(Cl)c1)c1ccncc12
5. CNC(=O)c1ccc(Nc2ncc(C(F)(F)F)c(NCc3nccnc3N(C)S(C)(=O)=O)n2)cc1
6. CCN(CC)C(=O)C[N+](C)(C)CCOC(c1ccccc1)c1ccccc1
7. Cn1cc(-c2[nH]c3cc(NC(=O)[C@H](N)C4CCCCC4)cc4c3c2C=NNC4=O)cn1
8. Nc1c2c(c(O)c3c1=C(CO)C=N3)=NCCS2

1: -34.7; 2: -65.1; 3: 101; 4: 19.2; 5: -11.9; 6: 105; 7: -11.1; 8: -20.9

For every listed record, write down its growth.
1. COc1ccc(Cl)c(Nc2nc3ccccc3nc2NS(=O)(=O)c2cccc(NC(=O)C(C)(C)N)c2)c1
2. Nc1c2c(c(O)c3c1=C(CO)C=N3)=NCCS2=O (stereo not given)
3. O=C(NO)c1ccc(Cn2c(=O)n(-c3ccccc3F)c(=O)c3ccccc32)cc1

1: 27.7; 2: -27.4; 3: 9.88

For every listed record, write down its growth.
1. Cc1ccc(NC(=O)c2ccc(CN3CC[C@H](N(C)C)C3)c(C(F)(F)F)c2)cc1Nc1nccc(-c2cncnc2)n1
2. c1cc[n+](Cc2c3ccccc3cc3c2ccc2ccccc23)cc1
3. COc1ccc(C2CC(=O)c3c(O)c(OC)c(OC)c(OC)c3O2)c(O)c1 (stereo not given)
4. N#Cc1c(C(F)(F)F)cc(Nc2ccc3nc(NCCN4CCCC4)oc3c2)n2c1nc1ccccc12
5. COCC(=O)NC/C=C/c1ccc2ncnc(Nc3ccc(Oc4ccc(C)nc4)c(C)c3)c2c1

-47.3
25.6
65.3
5.45
12.2

====

Tested on: K-562 leukemia
MEASUREMENT_DESCRIPTION: NCI-60 one-dose screen, 48 h (100 = growth as untreated, 0 = no growth, -100 = all killed)
CONDITION_SET: 10 µM unless noted
About 83,000 compounds went through this panel and 20% of them were active in at least one assay; those are over-represented in the sample as a whole.
Binarize growth at 20%; below is Y, at or above is N.

As a guide, the following entries are already answered.
C=CC(=O)N1CCC[C@@H](n2nc(-c3ccc(Oc4ccccc4)cc3)c3c(N)ncnc32)C1: Y
COc1ccc(Cc2cc(-c3ccccc3C)n[nH]c2=O)cc1: N
CC(C)(C)c1cnc(CSc2cnc(NC(=O)C3CCNCC3)s2)o1: Y
CO[C@H]1C[C@@H]2CC[C@@H](C)[C@@](O)(O2)C(=O)C(=O)N2CCCC[C@H]2C(=O)O[C@H]([C@H](C)C[C@@H]2CC[C@@H](O)[C@H](OC)C2)CC(=O)[C@H](C)/C=C(\C)[C@@H](O)[C@@H](OC)C(=O)[C@H](C)C[C@H](C)\C=C/C=C/C=C/1C: N
C[C@@H](C[C@H](CCO)c1cc(C(F)(F)F)cc(C(F)(F)F)c1)c1ccc2ccccc2c1: N
CNS(=O)(=O)Nc1nccc(Cc2c(C)c3ccc(Oc4ncccn4)cc3oc2=O)c1F: N
Clc1ccc2c(NCCNc3nc(N4CCCC4)nc4ccccc34)ccnc2c1: Y
Cc1cc2c(-c3nc4ccccn4c3NC34CC5CC(CC(C5)C3)C4)c(O)c(O)cc2c(O)c1-c1c(C)cc2c(-c3nc4ccccn4c3NC34CC5CC(CC(C5)C3)C4)c(O)c(O)cc2c1O: Y
C=C1C(=O)O[C@H]2[C@H]1CC/C(Cn1cc(-c3cc(C)c(C)cc3C)nn1)=C\CC[C@@]1(C)O[C@@H]21: Y
CC(=O)C1CC(C)CCC1C(C)C (centres undefined): N

Consider COc1cc(Nc2ncc(F)c(Nc3ccc4c(n3)NC(=O)C(C)(C)O4)n2)cc(OC)c1OC . Does its growth lie strictly below 20%? N

// next record CCCCCCC1(/C=N/NC(N)=O)NC(=O)NC1=O (centres undefined) N

// next record CC/C(=C(\c1ccc(OCCN2CCCCCCC2)cc1)c1ccc(OC(=O)C2CCCCC2)cc1)c1ccc(Cl)cc1 N

// next record Cc1ccc(Nc2nccc(N(C)c3ccc4c(C)n(C)nc4c3)n2)cc1S(N)(=O)=O Y

// next record N#Cc1cc2[nH]c3ccc(OC(F)(F)F)cc3c2oc1=O N

// next record O=C(c1c(F)ccc(NS(=O)(=O)N2CC[C@@H](F)C2)c1F)c1c[nH]c2ncc(-c3cnc(C4CC4)nc3)cc12 Y

// next record Nc1ncnc2c1ccn2-c1cccc(NC(=O)c2ccc(N3CCOCC3)c(C(F)(F)F)c2)c1 N

// next record C[C@H](NC(=O)c1c(N)nn2cccnc12)c1cc2cccc(C#Cc3cnn(C)c3)c2c(=O)n1-c1ccccc1 Y

// next record O=C(NOCCO)c1ccc2cncn2c1Nc1ccc(I)cc1F N

====

Tested on: SK-MEL-28 melanoma
MEASUREMENT_DESCRIPTION: NCI-60 one-dose screen, 48 h (100 = growth as untreated, 0 = no growth, -100 = all killed)
CONDITION_SET: 10 µM unless noted
This is part of a sample that, as a whole, favours compounds with a hit. Of some 83,000 tested, about 20% had one in any assay.
QUANTITY_MEASURED: growth (%)
One number for each entry, in %.

Previously resolved entries follow.
CC(C)(C)CC(C)(C)Nc1c(-c2c(O)c3ccccc3oc2=O)nc2c(Cl)cc(C(F)(F)F)cn12: 113
COCCN1CCN(Cc2ccc(-c3n[nH]c4c3C(=O)c3c(NC(=O)NN5CCOCC5)cccc3-4)cc2)CC1: -39.7

For every listed record, write down its growth.
1. CC(C)[C@@H]1CC[C@@H]2[C@@H]1[C@H](OC(=O)/C=C/c1ccccc1)[C@]1(C(C)C)C[C@@H](OC(=O)CO)[C@@]2(C)O1
2. COc1cc(NC2CCC(=O)N2c2ccc(Cl)cc2Cl)cc(OC)c1OC (centres undefined)

1. 104
2. 104

Taken from PubChem BioAssay (NCI).
